Tested on: RXF 393 renal
Assay: NCI-60 one-dose screen, 48 h
Conditions: 10 µM unless noted
The panel holds about 83,000 compounds, 20% with a hit somewhere; the sample as a whole holds those more often. Calls of active or inactive are those of the source. The calls were made as follows: active = growth percent below 10; inactive = the rest.
Valid outcomes are listed here; reply with one: 1.0 = active, 0.0 = inactive

Hey, what did the test say about CCC1CC(O)c2c(O)c3c(c(O)c2C1O)C(=O)c1cccc(O)c1C3=O (stereo not given) (tested in a mixture with another compound) ?
1.0

Just curious, what result did CC(=O)O[C@@H]1CC[C@]2(C)[C@H]3CC[C@]4(C)C(=O)CC[C@H]4[C@@H]3C[C@@H]3SC(N)=N[C@@]32C1 get here?
0.0

Assay outcome for Clc1cc(N2CC2)nc(N2CC2)n1 : what was it?
0.0
